- Test system: umbrella sedge (Cyperus difformis)
- method: Test B flooded paddy test, umbrella sedge
- Assay type: in vivo
- assayContext: Flood, 250 g ai/ha; scale 0 to 100
// reported Plant response rating, Sedge, Umbrella per item
readout: Plant response rating, Sedge, Umbrella

compound | observedResult
CC1(C)CC([S+]([O-])Cc2c(C(F)(F)C(F)(F)F)nc3n(c2=O)CCCS3)=NO1 (stereo not drawn) [Compound 40] | 0
Cc1con2c(=O)c(CS(=O)(=O)C3=NOC(C)(C)C3)c(C(F)(F)F)nc12 [Compound 56] | 30
CC1(C)CC([S+]([O-])Cc2c(C(F)(F)F)nc3ccon3c2=O)=NO1 (stereo not drawn) [Compound 43] | 30
CC1(C)CC(S(=O)(=O)Cc2c(C(F)(F)F)nc3ccon3c2=O)=NO1 [Compound 42] | 0
CC1(C)CC(S(=O)(=O)Cc2c(C(F)(F)F)nc3n(c2=O)CCS3)=NO1 [Compound 6] | 75
CC1(C)CC(S(=O)(=O)Cc2c(C(F)(F)C(F)(F)F)nc3n(c2=O)CCC3)=NO1 [Compound 22] | 0

* * *

- Tested on: large crabgrass (Digitaria sanguinalis)
- method: Test B preemergence, large crabgrass
- Type: in vivo
- assayContext: 16 g ai/ha, scale 0 to 100
Hi! Just check whether Plant response rating, Crabgrass, Large is below 60. Below gives fulfilled, equal or above gives not fulfilled.

structureAsSmiles | testedOn | answerLabel
CC1(C)CC(S(=O)(=O)Cc2c(C(F)(F)C(F)(F)F)nc3n(c2=O)CCC3)=NO1 | large crabgrass (Digitaria sanguinalis) | not fulfilled
CC1(C)CC(S(=O)(=O)Cc2c(C(F)(F)F)nc3ccsn3c2=O)=NO1 | large crabgrass (Digitaria sanguinalis) | not fulfilled
CC1(C)CC(S(=O)(=O)Cc2c(C(F)(F)F)nc3n(c2=O)CCC3)=NO1 | large crabgrass (Digitaria sanguinalis) | not fulfilled
CC1(C)CC(S(=O)(=O)Cc2c(C(F)(F)F)nc3n(c2=O)CCS3)=NO1 | large crabgrass (Digitaria sanguinalis) | not fulfilled
CC1(C)CC(S(=O)(=O)Cc2c(C(F)(F)C(F)(F)F)nc3n(c2=O)CCCC3)=NO1 | large crabgrass (Digitaria sanguinalis) | fulfilled
CC1(C)CC(S(=O)(=O)Cc2c(C(F)(F)F)nc3n(c2=O)CCCC3)=NO1 | large crabgrass (Digitaria sanguinalis) | not fulfilled
CC1(C)CC(S(=O)(=O)Cc2c(C(F)(F)F)nc3n(c2=O)CCO3)=NO1 | large crabgrass (Digitaria sanguinalis) | not fulfilled
CC1(C)CC(S(=O)(=O)Cc2c(C(F)(F)Cl)nc3n(c2=O)CCC3)=NO1 | large crabgrass (Digitaria sanguinalis) | fulfilled

* * *

- System: morningglory (Ipomoea spp.)
- method: Test A preemergence, morningglory
- Assay type: in vivo
- assayContext: 500 g ai/ha, 0 to 100 scale (0 no effect, 100 complete control)
- Source text: Seeds of barnyardgrass (Echinochloa crus-galli), large crabgrass (Digitaria sanguinalis), giant foxtail (Setaria faberi), morningglory (Ipomoea spp.), pigweed (Amaranthus retroflexus), velvetleaf (Abutilon theophrasti), wheat (Triticum aestivum), and corn (Zea mays) were planted into a blend of loam soil and sand and treated preemergence with a directed soil spray using test chemicals formulated in a non-phytotoxic solvent mixture which included a surfactant. […]
// reported Plant response rating, Morningglory per item

molecule | testedOn | Plant response rating, Morningglory
CCn1c(=O)c(CS(=O)(=O)C2=NOC(C)(C)C2)nc2cccnc21 | morningglory (Ipomoea spp.) | 0
Cn1c(=O)c(CS(=O)(=O)C2=NOC(C)(C)C2)c(C(F)(F)F)c2ccccc21 | morningglory (Ipomoea spp.) | 0
CC1(C)CC(S(=O)(=O)Cc2c(C(F)(F)F)nc3n(c2=O)CCO3)=NO1 | morningglory (Ipomoea spp.) | 80
Cc1con2c(=O)c(CS(=O)(=O)C3=NOC(C)(C)C3)c(C(F)(F)F)nc12 | morningglory (Ipomoea spp.) | 0
CC1(C)CC([S+]([O-])Cc2c(C(F)(F)Cl)nc3n(c2=O)CCCC3)=NO1 (centres unmarked) | morningglory (Ipomoea spp.) | 0
CC1(C)CC([S+]([O-])Cc2c(C(F)(F)Cl)nc3n(c2=O)CCC3)=NO1 (centres unmarked) | morningglory (Ipomoea spp.) | 0
CC1(C)CC(S(=O)(=O)Cc2c(C(F)(F)Cl)nc3n(c2=O)CCCC3)=NO1 | morningglory (Ipomoea spp.) | 40
CC1(C)CC(S(=O)(=O)Cc2c(C(F)(F)F)nc3n(c2=O)CCS3)=NO1 | morningglory (Ipomoea spp.) | 100
CC1(C)CC(S(=O)(=O)Cc2c(C(F)(F)C(F)(F)F)nc3n(c2=O)CCCC3)=NO1 | morningglory (Ipomoea spp.) | 50
CC1(C)CC(S(=O)(=O)Cc2c(C(F)(F)F)nc3ccccn3c2=O)=NO1 | morningglory (Ipomoea spp.) | 0
Cn1c(=O)c(C[S+]([O-])C2=NOC(C)(C)C2)nc2ccccc21 (centres unmarked) | morningglory (Ipomoea spp.) | 0
CCn1c(=O)c(C[S+]([O-])C2=NOC(C)(C)C2)nc2cccnc21 (centres unmarked) | morningglory (Ipomoea spp.) | 0
CC1(C)CC([S+]([O-])Cc2c(C(F)(F)Cl)nc3n(c2=O)CCCS3)=NO1 (centres unmarked) | morningglory (Ipomoea spp.) | 0
CC1(C)CC(S(=O)(=O)Cc2c(C(F)(F)C(F)(F)F)nc3n(c2=O)CCC3)=NO1 | morningglory (Ipomoea spp.) | 80
CC1(C)CC([S+]([O-])Cc2c(C(F)(F)F)nc3n(c2=O)CCC3)=NO1 (centres unmarked) | morningglory (Ipomoea spp.) | 0
CC1(C)CC([S+]([O-])Cc2c(C(F)(F)C(F)(F)F)nc3n(c2=O)CCCS3)=NO1 (centres unmarked) | morningglory (Ipomoea spp.) | 0
CC1(C)CC(S(=O)(=O)Cc2c(C(F)(F)F)nc3n(c2=O)CCCO3)=NO1 | morningglory (Ipomoea spp.) | 70

Data provenance is patent US20100099561A1.
